Biological target: T1, Chymase, from human skin (human, UniProt P23946 22-247)
T1 sequence (looked up): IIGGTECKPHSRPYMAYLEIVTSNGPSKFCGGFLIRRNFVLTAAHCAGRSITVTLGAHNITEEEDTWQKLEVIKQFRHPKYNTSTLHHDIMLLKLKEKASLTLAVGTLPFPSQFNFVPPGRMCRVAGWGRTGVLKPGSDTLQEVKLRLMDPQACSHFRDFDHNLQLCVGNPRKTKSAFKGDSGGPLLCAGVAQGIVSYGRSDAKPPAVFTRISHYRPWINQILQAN
Experiment: cell-based or functional assay
endpoint: % inhibition at 100 µM (%)
# output: bare number, implied unit %

Example entries and their recorded answers appear below.
ICTKSDPPXCR (HELM PEPTIDE1{I.C.T.K.S.D.P.P.[Nle].C.R.[dP].P}$PEPTIDE1,PEPTIDE1,2:R3-10:R3|PEPTIDE1,PEPTIDE1,1:R1-13:R2$$$V2.0; SMILES CCCC[C@@H]1NC(=O)[C@@H]2CCCN2C(=O)[C@@H]2CCCN2C(=O)[C@H](CC(=O)O)NC(=O)[C@H](CO)NC(=O)[C@H](CCCCN)NC(=O)[C@H]([C@@H](C)O)NC(=O)[C@@H]2CSSC[C@H](NC1=O)C(=O)N[C@@H](CCCNC(=N)N)C(=O)N1CCC[C@@H]1C(=O)N1CCC[C@H]1C(=O)N[C@@H]([C@@H](C)CC)C(=O)N2) [Example 57] ... 26.9
FCTKSDPPICS (HELM PEPTIDE1{F.C.T.K.S.D.P.P.I.C.S.[dP].P}$PEPTIDE1,PEPTIDE1,2:R3-10:R3|PEPTIDE1,PEPTIDE1,1:R1-13:R2$$$V2.0; SMILES CC[C@H](C)[C@@H]1NC(=O)[C@@H]2CCCN2C(=O)[C@@H]2CCCN2C(=O)[C@H](CC(=O)O)NC(=O)[C@H](CO)NC(=O)[C@H](CCCCN)NC(=O)[C@H]([C@@H](C)O)NC(=O)[C@@H]2CSSC[C@H](NC1=O)C(=O)N[C@@H](CO)C(=O)N1CCC[C@@H]1C(=O)N1CCC[C@H]1C(=O)N[C@@H](Cc1ccccc1)C(=O)N2) [Example 4] ... 0
FCTKSDPPXCS (HELM PEPTIDE1{F.C.T.K.S.D.P.P.[Cha].C.S.[dP].P}$PEPTIDE1,PEPTIDE1,2:R3-10:R3|PEPTIDE1,PEPTIDE1,1:R1-13:R2$$$V2.0; SMILES C[C@@H](O)[C@@H]1NC(=O)[C@@H]2CSSC[C@H](NC(=O)[C@H](CC3CCCCC3)NC(=O)[C@@H]3CCCN3C(=O)[C@@H]3CCCN3C(=O)[C@H](CC(=O)O)NC(=O)[C@H](CO)NC(=O)[C@H](CCCCN)NC1=O)C(=O)N[C@@H](CO)C(=O)N1CCC[C@@H]1C(=O)N1CCC[C@H]1C(=O)N[C@@H](Cc1ccccc1)C(=O)N2) [Example 54] ... 12.9
XCTKSDPPICS (HELM PEPTIDE1{[O=C([C@@H](N[*:1])C1CCCCC1)[*:2]].C.T.K.S.D.P.P.I.C.S.[dP].P}$PEPTIDE1,PEPTIDE1,2:R3-10:R3|PEPTIDE1,PEPTIDE1,1:R1-13:R2$$$V2.0; SMILES CC[C@H](C)[C@@H]1NC(=O)[C@@H]2CCCN2C(=O)[C@@H]2CCCN2C(=O)[C@H](CC(=O)O)NC(=O)[C@H](CO)NC(=O)[C@H](CCCCN)NC(=O)[C@H]([C@@H](C)O)NC(=O)[C@@H]2CSSC[C@H](NC1=O)C(=O)N[C@@H](CO)C(=O)N1CCC[C@@H]1C(=O)N1CCC[C@H]1C(=O)N[C@@H](C1CCCCC1)C(=O)N2) [Example 11] ... 12.1

Entry FCTKSDPPICY (HELM PEPTIDE1{F.C.T.K.S.D.P.P.I.C.Y.[dP].P}$PEPTIDE1,PEPTIDE1,2:R3-10:R3|PEPTIDE1,PEPTIDE1,1:R1-13:R2$$$V2.0; SMILES CC[C@H](C)[C@@H]1NC(=O)[C@@H]2CCCN2C(=O)[C@@H]2CCCN2C(=O)[C@H](CC(=O)O)NC(=O)[C@H](CO)NC(=O)[C@H](CCCCN)NC(=O)[C@H]([C@@H](C)O)NC(=O)[C@@H]2CSSC[C@H](NC1=O)C(=O)N[C@@H](Cc1ccc(O)cc1)C(=O)N1CCC[C@@H]1C(=O)N1CCC[C@H]1C(=O)N[C@@H](Cc1ccccc1)C(=O)N2) [Example 5] ; % inhibition at 100 µM = 0
